Listing: A549 cell lysis IC50, strain O16-177/81 of selected binders
- MEASURED_ON: native PcrV on live Pseudomonas aeruginosa (strains O6-57/66, O11-PA103, O1-52/66, O16-177/81) (Pseudomonas aeruginosa)
- MEASUREMENT_PROTOCOL: cell-based or functional assay
Supply the numeric figure in µg/mL, leaving out any unit text.

BINDER | A549 cell lysis IC50, strain O16-177/81 [µg/mL]
7B1 (antibody, V domains shown, also called 7B1-IgG1; 7B1 mAb) VH: EVQLLESGGGLVQPGGSLRLSCTASGFTFSDNYMSWVRQAPGKGLDWVSVISESGGSTNYADSVKGRFSTSRDNSKSTLYLDMNSLRAEDTAIYYCAKGRFSTLSSHFFRAVYGMDVWGQGTAVTVSS VL: DIQLTQSPSSLSASVGDRVTITCRASQGISSYLAWYQQKPGKAPKLLIYAASTLQSGVPSRFSGSGSGTDFTLTISSLQPEDFATYYCQQLSSYPLTFGGGTKVEIK | 0.861
13-42 mAb (antibody, V domains shown) VH: EVQLLESGGGLVQPGGSLRLSCTASGFTFSDYPMSWVRQAPGKGLDWVSGISESGGSTNDADSVKGRFSTSRDNSKSTLYLDMNSLRAEDTAIYYCAKGRFCTNSSCFFRAVYGMDVWGQGTAVTVSS VL: DIQLTQSPSSLSASVGDRVTITCRASQGISSYLAWYQQKPGKAPKLLIYAASTLQSGVPSRFSGSGSGTDFTLTISSLQPEDFATYYCQQLSSYPLSFGGGTKVEIK | 1.08
7C1 (antibody, V domains shown, also called optimized anti-PcrV mAb clone 7C1) VH: EVQLLESGGGLVQPGGSLRLSCTASGFTFSDNHMSWVRQAPGKGLDWVSGISESGGSTNYADSVKGRFSTSRDNSKSTLYLDMNSLRAEDTAIYYCAKGRFSTSSSHFYRAVYGMDVWGQGTAVTVSS VL: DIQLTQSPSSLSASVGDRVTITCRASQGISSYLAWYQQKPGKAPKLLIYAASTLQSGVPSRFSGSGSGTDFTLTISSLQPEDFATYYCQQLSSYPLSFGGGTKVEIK | 1.09

We now examine a further binder.
Report measured A549 cell lysis IC50, strain O16-177/81; entry is 8C1 (antibody, V domains shown, also called optimized anti-PcrV mAb clone 8C1) VH: EVQLLESGGGLVQPGGSLRLSCTASGFTFSDNHMSWVRQAPGKGLDWVSGISESGGSTNYADSVKGRFSTSRDNSKSTLYLDMNSLRAEDTAIYYCAKGRFSTNSAHFFRAVYGMDVWGQGTAVTVSS VL: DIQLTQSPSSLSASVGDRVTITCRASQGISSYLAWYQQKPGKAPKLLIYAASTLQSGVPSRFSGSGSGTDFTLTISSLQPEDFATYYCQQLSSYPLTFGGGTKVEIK
0.881
